Target: Beta-secretase 1 (Homo sapiens, UniProt P56817)
Sequence (P56817 whole entry): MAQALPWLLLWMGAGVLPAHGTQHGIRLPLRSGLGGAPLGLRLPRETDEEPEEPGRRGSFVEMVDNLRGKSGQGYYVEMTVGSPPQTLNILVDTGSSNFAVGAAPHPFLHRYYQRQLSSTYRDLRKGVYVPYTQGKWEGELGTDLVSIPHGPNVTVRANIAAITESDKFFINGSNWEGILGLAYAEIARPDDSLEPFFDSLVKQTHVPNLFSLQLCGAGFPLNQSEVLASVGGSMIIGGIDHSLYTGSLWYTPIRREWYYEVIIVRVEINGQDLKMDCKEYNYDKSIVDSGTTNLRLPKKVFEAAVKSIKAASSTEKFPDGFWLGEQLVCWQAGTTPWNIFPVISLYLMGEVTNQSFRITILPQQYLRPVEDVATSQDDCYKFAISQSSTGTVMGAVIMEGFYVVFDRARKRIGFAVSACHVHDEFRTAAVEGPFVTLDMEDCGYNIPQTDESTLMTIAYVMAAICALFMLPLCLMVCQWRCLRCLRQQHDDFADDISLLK
Test: Inhibition of recombinant human BACE1 in FRET assay
VALUE_TYPE: IC50 (µM)
I only need the number, in µM, no unit after it.

input: What does the record list as IC50 for `CC(C)[C@H](NC(=O)CC[C@H](O)[C@@H]1CCCCCC[C@H](NC(=O)OC(C)(C)C)C(=O)N[C@@H](C)C(=O)N1)C(=O)NCc1ccccc1` ?
output: 9.7
